// reported fold induction at 1 h, 1 µM for each item listed
# system.tested: CYP3A4 (Homo sapiens)
# Sequence (P08684 whole entry): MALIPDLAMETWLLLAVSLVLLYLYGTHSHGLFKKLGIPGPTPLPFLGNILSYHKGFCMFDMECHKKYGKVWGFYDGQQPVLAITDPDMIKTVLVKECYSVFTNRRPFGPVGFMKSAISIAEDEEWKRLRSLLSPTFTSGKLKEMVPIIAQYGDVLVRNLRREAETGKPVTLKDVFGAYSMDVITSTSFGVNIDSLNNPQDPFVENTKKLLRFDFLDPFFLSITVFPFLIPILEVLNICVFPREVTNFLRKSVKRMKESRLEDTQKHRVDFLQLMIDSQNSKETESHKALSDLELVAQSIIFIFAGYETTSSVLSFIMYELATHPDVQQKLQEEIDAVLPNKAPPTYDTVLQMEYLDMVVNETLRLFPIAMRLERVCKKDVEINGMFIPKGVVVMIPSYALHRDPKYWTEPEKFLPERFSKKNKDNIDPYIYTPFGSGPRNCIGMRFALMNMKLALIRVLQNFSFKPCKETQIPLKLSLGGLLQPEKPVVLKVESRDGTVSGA
# assay.overview: Induction of CYP3A4 in human hepatocytes assessed as fold induction at 1 uM using testosterone as substrate preincubated with replacement of fresh medium containing compound every 24 hrs for 72 hrs followed by substrate addition and measured after 1 hr by LC-MS/MS analysis relative to control
# Assay type: ADME, cell-based, Hepatocyte
# experimental.conditions: probe testosterone, time 73 hrs, read-out: FC

{"columns": ["smiles.notation", "fold induction at 1 h, 1 µM"],
 "data": [
  ["Cc1cnc(C#Cc2ccc3c4c(oc3c2)C(C)(C)c2cc(NS(C)(=O)=O)ccc2C4=O)cc1C(=O)NC(C)(C)C", 2.6],
  ["CCCc1cc(C(=O)NC(C)(C)C)cc(C#Cc2ccc3c4c(oc3c2)C(C)(C)c2cc(NS(C)(=O)=O)ccc2C4=O)n1", 0.9],
  ["CC1(C)c2cc(NS(C)(=O)=O)ccc2C(=O)c2c1oc1cc(C#Cc3cc(C(=O)NC4CC4)ccn3)ccc21", 2.8],
  ["CC1(C)c2cc(NS(C)(=O)=O)ccc2C(=O)c2c1oc1cc(C#Cc3cc(OCC4CC4)ccn3)ccc21", 1.2]
]}
